# TESTED SYSTEM: UniProt Q96LD8
# Sequence (Q96LD8 whole entry): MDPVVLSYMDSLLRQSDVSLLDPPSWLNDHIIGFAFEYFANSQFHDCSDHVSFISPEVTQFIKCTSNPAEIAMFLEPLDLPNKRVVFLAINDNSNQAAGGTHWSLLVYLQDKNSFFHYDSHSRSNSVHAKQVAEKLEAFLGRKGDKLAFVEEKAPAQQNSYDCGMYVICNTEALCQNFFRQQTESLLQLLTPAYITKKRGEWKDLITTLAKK
# Type: functional
Calls of active or inactive are those of the source.
Just give me one of these, please: active, inactive

Some solved cases for reference:
Tell me the recorded outcome of this test for `Cc1cnc(C(=O)Nc2c(-c3ccccc3)[nH][nH]c2=O)cn1` . active

Please indicate how the test categorized `O=C(CN1C(=O)CSC1=O)N1CCc2ccccc2C1` . inactive

Which outcome was entered for the compound `CCS(=O)(=O)N1CCC(C(=O)N2CCc3ccccc3C2)CC1` in this test? inactive

# ---- query compound ----
Dear all, I need the recorded test outcome for `Oc1cc(NCCN2CCOCC2)cc2cccnc12` , thank you. active

Origin of the recorded values: ChEMBL document CHEMBL1201862
